Tested on: SF-268 CNS
Assay: NCI tumour cell line growth inhibition, 48 h
Form field: TGI (one value per entry).
PROPERTY MEASURED: TGI

{"columns": ["COMPOUND", "REPORTED RESULT"],
 "data": [
  ["Cc1ccc(Nc2nc3c(s2)C(=O)c2ccccc2C3=O)cc1", "5.66 µM"],
  ["CCSc1nc(-c2ccc(OC)cc2)c(C#N)c(=O)n1C1OCC(OC(C)=O)C(OC(C)=O)C1OC(C)=O (stereo unspecified)", "> 100 µM"],
  ["Cc1cc(I)cc(CN(C)CCN(C)C)c1O", "> 73 µM"],
  ["O=C(O)C1(C(=O)O)CC1", "> 100 µM"],
  ["O=C(Nc1cccc(-n2cc(-c3ccncc3)c(-c3ccc(Cl)c(O)c3)n2)c1)Nc1cccc(C(F)(F)F)c1", "15.8 µM"],
  ["O=C1Nc2ccccc2S/C1=C\\c1ccc(C(F)(F)F)cc1", "> 100 µM"]
]}

* * *

Tested on: CCRF-CEM leukemia
Assay: NCI tumour cell line growth inhibition, 48 h
PROPERTY MEASURED: GI50

{"columns": ["COMPOUND", "REPORTED RESULT"],
 "data": [
  ["CCN(CC)CCn1c(N)c(-c2nc3ccccc3n2C)c2nc(C#N)c(C#N)nc21", "4.25 µM"],
  ["CCN(CCCNC(=O)Cc1cc(=O)oc2cc(N(C)C)ccc12)CCNc1ccnc2cc(Cl)ccc12", "4.38 µM"],
  ["CCC(/C=C(C)/C=C/C(=O)c1c(O)c(-c2ccc(O)cc2)c[nH]c1=O)CO (stereo not given)", "3.53 µM"],
  ["O=c1ccc(N=Nc2ccccc2)ccc1Cl", "1.39 µM"],
  ["CCC(CC)COC(=O)[C@H](C)N[P@](=O)(OC[C@H]1O[C@@](C#N)(c2ccc3c(N)ncnn23)[C@H](O)[C@@H]1O)Oc1ccccc1", "3.51 µM"]
]}

* * *

Tested on: A498 renal
Assay: NCI tumour cell line growth inhibition, 48 h
Listed below: TGI values for each entry.
PROPERTY MEASURED: TGI (µM)

{"columns": ["COMPOUND", "UNIT ABBREV", "VALUE QUALIFIER", "REPORTED RESULT"],
 "data": [
  ["C=C(C)[C@@H]1CC[C@]2(COC(C)=O)CC[C@]3(C)[C@H](CC[C@@H]4[C@@]5(C)CCCN(C(C)=O)C(C)(C)[C@@H]5CC[C@]43C)[C@@H]12", "µM", "=", 23.4],
  ["CN1CN(c2ccccc2)C2(CCN(Cc3nc4ccccc4s3)CC2)C1=O", "µM", "=", 30.7],
  ["NS(=O)(=O)N(c1cc(C(F)(F)F)cc(C(F)(F)F)c1)C1CCN(Cc2ccc(C(F)(F)F)cc2)CC1", "µM", "=", 12],
  ["N=C1N(c2ccccc2)C(=S)C(=Nc2ccccc2)N1c1ccccc1", "µM", "=", 31.8],
  ["OCCCNCC(O)c1ccc(OCc2ccccc2)c(OCc2ccccc2)c1 (stereo not drawn)", "µM", "=", 25.8],
  ["Cc1nnc([S-])o1.[Au+].c1ccc([PH+](c2ccccc2)c2ccccc2)cc1", "µM", "=", 2.93],
  ["O=C1c2ccc3c4c(ccc(c24)C(=O)N1CCCNCc1ccccc1F)C(=O)N(CCCNCc1ccccc1F)C3=O", "µM", "=", 1.72],
  ["CCSc1nc(-c2ccc(OC)cc2)c(C#N)c(=O)n1C1OCC(OC(C)=O)C(OC(C)=O)C1OC(C)=O (stereo not drawn)", "µM", ">", 100]
]}
